# target_system: human neutrophil elastase (HNE) (Homo sapiens, UniProt P08246)
# Sequence (P08246 30-267): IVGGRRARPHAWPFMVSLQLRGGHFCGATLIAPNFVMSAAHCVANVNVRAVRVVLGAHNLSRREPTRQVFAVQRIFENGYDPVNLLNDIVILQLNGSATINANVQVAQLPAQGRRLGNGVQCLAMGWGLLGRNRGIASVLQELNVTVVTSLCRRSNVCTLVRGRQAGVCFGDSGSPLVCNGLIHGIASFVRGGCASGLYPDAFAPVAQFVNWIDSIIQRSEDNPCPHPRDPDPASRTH
# experimental_details: HNE enzyme assay (fluorogenic peptide substrate MeOSuc-Ala-Ala-Pro-Val-AMC)
# experimental_context: human leukocyte elastase, substrate 100 μM, 25° C., 30 minutes, at least two separate experiments; read-out: HNE inhibition (IC50 values)
measured_attribute: IC50

molecule	measured_attribute	readout_value
COC(=O)C1=C(C)N(c2cccc(C(F)(F)F)c2)c2nn(Cc3ccc(CN(C)C)cc3)c(=O)n2C1c1ccc(C#N)cc1 (stereo not shown) [Example 21]	IC50	< 20 nM
CCNC(=O)C1=C(C)N(c2cccc(C(F)(F)F)c2)c2n[nH]c(=O)n2C1c1ccc(C#N)cc1 (stereo not shown) [Example 12]	IC50	20 to 100 nM
COC(=O)C1=C(C)N(c2cccc(C(F)(F)F)c2)c2nn(CCCN(C)C(C)=O)c(=O)n2C1c1ccc(C#N)cc1 (stereo not shown) [Example 35]	IC50	< 20 nM
COC(=O)C1=C(C)N(c2cccc(C(F)(F)F)c2)c2nn(CCCS(=O)(=O)CCC[N+](C)(C)C)c(=O)n2C1c1ccc(C#N)cc1 (stereo not shown) [Example 37]	IC50	< 20 nM

input: Suppose we examine the molecule COC(=O)C1=C(C)N(c2cccc(C(F)(F)F)c2)c2nn(CC(=O)N(C)CCCCCN(C)C)c(=O)n2[C@@H]1c1ccc(C#N)cc1 [Example 33] ; what IC50 value has been reported?
output: < 20 nM

input: Thanks! And COC(=O)C1=C(C)N(c2cccc(C(F)(F)F)c2)c2nn(CC(N)=O)c(=O)n2C1c1ccc(C#N)cc1 (stereo not shown) [Example 2] ?
output: < 20 nM

input: Thanks! And COC(=O)C1=C(C)N(c2cccc(C(F)(F)F)c2)c2nn(CC(=O)N(C)CCN(C)C)c(=O)n2C1c1ccc(C#N)cc1 (stereo not shown) [Example 25] ?
output: < 20 nM

# credit: patent US9023855B2
